Where these numbers come from: ChEMBL document CHEMBL4346727

Test Method Notes: Protection index, ratio of TD50 for neurotoxicity in ip dosed CD1 mouse by rotarod test to ED50 for anticonvulsant activity in ip dosed CD1 mouse by maximal electroshock seizure test
Assay type: toxicity, organism-based
Run Conditions: in vivo, read-out: Ratio TD50/ED50
Parameter Measured: selectivity ratio
Numbers only.

Annotate the molecule "CN1CCN(CN2C(=O)NC(c3ccccc3)(c3ccccc3)C2=O)CC1" with its measured selectivity ratio.
6.78

Let's switch to this molecule now.
For the molecule O=C1NC(=O)C(c2ccccc2)(c2ccccc2)N1 [PHENYTOIN] , report selectivity ratio.
7.27

###

Test Method Notes: Neurotoxicity in ip dosed CD1 mouse and measured after 0.5 hrs by rotarod test
Format: toxicity, organism-based
Run Conditions: in vivo
Can you tell me minimal neurotoxic dose for the items I'm about to list?
Write the numeric value and append its unit.

The examples below pair each entry with its known result.
Tell me minimal neurotoxic dose reported for "CN1CCN(CN2C(=O)NC(c3ccccc3)(c3ccccc3)C2=O)CC1"
100 mg/kg

Output minimal neurotoxic dose of "O=C1NC(=O)C(c2ccccc2)(c2ccccc2)N1"
100 mg/kg

Each of the following entries comes with a recorded value; kindly state minimal neurotoxic dose for each.
1. CC(C)C1(C(C)C)NC(=O)N(CN2CCN(CCc3ccccc3)CC2)C1=O
2. CC(C)C1(C(C)C)NC(=O)N(CN2CCN(c3ccccc3F)CC2)C1=O

["300 mg/kg", "300 mg/kg"]

Hi! Can you tell me minimal neurotoxic dose for each of these compounds?
1. CC(C)C1(C(C)C)NC(=O)N(CN2CCN(C)CC2)C1=O
2. CC(C)C1(C(C)C)NC(=O)N(CN2CCN(c3ccc(F)cc3)CC2)C1=O
3. CC(C)C1(C(C)C)NC(=O)N(CN2CCN(Cc3ccccc3)CC2)C1=O

300 mg/kg
300 mg/kg
300 mg/kg

###

Test Method Notes: Protection index, ratio of TD50 for neurotoxicity in ip dosed CD1 mouse by rotarod test to ED50 for anticonvulsant activity in ip dosed CD1 mouse model of subcutaneous PTZ-induced seizures
Assay type: toxicity, organism-based
Run Conditions: in vivo, read-out: Ratio TD50/ED50
Parameter Measured: selectivity ratio

Please report selectivity ratio for the following molecule: "CC(C)C1(C(C)C)NC(=O)N(CN2CCN(CCc3ccccc3)CC2)C1=O"
> 2.23

###

Test Method Notes: Protection index, ratio of TD50 for neurotoxicity in ip dosed CD1 mouse by rotarod test to ED50 for anticonvulsant activity in CD1 mouse by 6 Hz psychomotor seizure test
Format: toxicity, organism-based
Run Conditions: in vivo, read-out: Ratio TD50/ED50
Parameter Measured: selectivity ratio
One number for each entry.

# return recorded selectivity ratio for input "CN1CCN(CN2C(=O)NC(c3ccccc3)(c3ccccc3)C2=O)CC1"
6.19

###

Test Method Notes: Neurotoxicity in po dosed Sprague-Dawley rat model by rotarod test
Assay type: toxicity, organism-based
Run Conditions: in vivo
Parameter Measured: TD50

Provide TD50 value for the following molecule: "O=C1NC(=O)C(c2ccccc2)(c2ccccc2)N1"
> 1000 mg/kg

API: the following record is the query input.
Provide measured TD50 value, entry: "CN1CCN(CN2C(=O)NC(c3ccccc3)(c3ccccc3)C2=O)CC1"
> 500 mg/kg
